Kindly supply the reported pIC50 values for the records listed here.
# Test system: Plasmodium falciparum
# protocol: Antiplasmodial activity against chloroquine-resistant Plasmodium falciparum W2 assessed as inhibition of parasite LDH activity […] after 72 hrs by malstat reagent method
# Type: functional, organism-based
# assay conditions: W2, 72 h
Give bare numbers, as −log10 of the molar value.

[
  {
    "compound": "CC(C)(C)c1cc(NC(=O)C2C(C(=O)O)[C@@H]3CC[C@H]2O3)cc(C(C)(C)C)c1 (stereo not given in full)",
    "pIC50": 3.75
  },
  {
    "compound": "CCCCCCCCCCN1C(=O)C2C(C1=O)[C@H]1CC[C@@H]2O1 (stereo not given in full)",
    "pIC50": 3.85
  },
  {
    "compound": "O=C(O)C1C(C(=O)Nc2ccc([N+](=O)[O-])cc2)[C@H]2CC[C@@H]1O2 (stereo not given in full)",
    "pIC50": 3.41
  }
]

Q: Need pIC50 of O=C(O)C1C(C(=O)NCCCc2ccccc2)[C@H]2CC[C@@H]1O2 (stereo not given in full) , thanks.
Ans: 3.64

###

Kindly supply the reported IC50 values for the records listed here.
# protocol: Inhibition of human PP1
Give bare numbers, in µM.

Reference set (8 entries):
[
  {
    "compound": "O=C(O)C1C(C(=O)Nc2cccc(CO)c2)[C@H]2CC[C@@H]1O2 (some centres undefined)",
    "IC50, µM": 15
  },
  {
    "compound": "O=C(O)C1C(C(=O)Nc2cccc(I)c2)[C@H]2CC[C@@H]1O2 (some centres undefined)",
    "IC50, µM": 44
  },
  {
    "compound": "C#Cc1cccc(NC(=O)C2C(C(=O)O)[C@@H]3CC[C@H]2O3)c1 (some centres undefined)",
    "IC50, µM": 20
  },
  {
    "compound": "O=C(O)C1C(C(=O)NCCc2ccccc2)[C@H]2CC[C@@H]1O2 (some centres undefined)",
    "IC50, µM": 33
  },
  {
    "compound": "O=C(O)CCCNC(=O)C1C(C(=O)O)[C@@H]2CC[C@H]1O2 (some centres undefined)",
    "IC50, µM": 15
  },
  {
    "compound": "COc1ccc(CNC(=O)C2C(C(=O)O)[C@@H]3CC[C@H]2O3)cc1 (some centres undefined)",
    "IC50, µM": 35
  },
  {
    "compound": "O=C(O)C1C(C(=O)NCCN2CCOCC2)[C@H]2CC[C@@H]1O2 (some centres undefined)",
    "IC50, µM": 30
  },
  {
    "compound": "CC(C)(C)c1cc(NC(=O)C2C(C(=O)O)[C@@H]3CC[C@H]2O3)cc(C(C)(C)C)c1 (some centres undefined)",
    "IC50, µM": 8.2
  }
]

Please examine the following record next.
Q: Need IC50 of CCc1ccccc1NC(=O)C1C(C(=O)O)[C@@H]2CC[C@H]1O2 (some centres undefined) , thanks.
Ans: 51

###

# protocol: Inhibition of human PP1
assay metric: pIC50
Answers are plain numbers, as −log10 of the molar value.

Reference set (4 entries):
[
  {
    "compound": "O=C(O)C1C(C(=O)NCc2ccc(F)c(F)c2)[C@H]2CC[C@@H]1O2 (stereo not given in full)",
    "pIC50": 4.59
  },
  {
    "compound": "CSc1ccc(NC(=O)C2C(C(=O)O)[C@@H]3CC[C@H]2O3)cc1 (stereo not given in full)",
    "pIC50": 5.00
  },
  {
    "compound": "CC(C)(C)c1ccc(NC(=O)C2C(C(=O)O)[C@@H]3CC[C@H]2O3)cc1 (stereo not given in full)",
    "pIC50": 5.00
  },
  {
    "compound": "O=C(O)C1C(C(=O)N2CCSCC2)[C@H]2CC[C@@H]1O2 (stereo not given in full)",
    "pIC50": 5.49
  }
]

Please examine the following record next.
Q: Need pIC50 of COc1ccc(NC(=O)C2C(C(=O)O)[C@@H]3CC[C@H]2O3)cc1 (stereo not given in full) , thanks.
Ans: 4.80

Cited source for all entries: ChEMBL document CHEMBL1268944
